- method.notes: BSK_hDFCGF_Proliferation: Cell Proliferation Assessment in the BioMAP Diversity Plus: hDFCGF Assay (AID 2283059);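 also: curves fitted for both rise and fall of signal versus DMSO baseline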
- condition.notes: primary human foreskin fibroblasts
Active and inactive are the calls of the source. The calls were made as follows: active = hit-call score of the fitted dose curve at least 0.9, where 1 is the maximum; inactive = score below 0.9.
Choose one outcome from this list and give only that: Y = active, N = inactive

For orientation, consider the following solved cases.
compound	discrete.label
ClC1=C(Cl)[C@]2(Cl)[C@H]3[C@H]([C@@H]4C=C[C@H]3C4)[C@@]1(Cl)C2(Cl)Cl	Y
C[N+](C)(C)CC1CO1 (centres undefined)	N
Nc1ccc([N+](=O)[O-])cc1	Y

Continue with the next compound.
Ask | Check the results log: what was the call for "CN(C)c1ccc(C(=O)c2ccc(N(C)C)cc2)cc1" ?
Reply | Y

###

- experimental.target: rat Adrenergic, Alpha 1A Receptor (Adra1A), Adra1a (gene 29412) (UniProt P43140)
- Sequence (P43140 whole entry, looked up): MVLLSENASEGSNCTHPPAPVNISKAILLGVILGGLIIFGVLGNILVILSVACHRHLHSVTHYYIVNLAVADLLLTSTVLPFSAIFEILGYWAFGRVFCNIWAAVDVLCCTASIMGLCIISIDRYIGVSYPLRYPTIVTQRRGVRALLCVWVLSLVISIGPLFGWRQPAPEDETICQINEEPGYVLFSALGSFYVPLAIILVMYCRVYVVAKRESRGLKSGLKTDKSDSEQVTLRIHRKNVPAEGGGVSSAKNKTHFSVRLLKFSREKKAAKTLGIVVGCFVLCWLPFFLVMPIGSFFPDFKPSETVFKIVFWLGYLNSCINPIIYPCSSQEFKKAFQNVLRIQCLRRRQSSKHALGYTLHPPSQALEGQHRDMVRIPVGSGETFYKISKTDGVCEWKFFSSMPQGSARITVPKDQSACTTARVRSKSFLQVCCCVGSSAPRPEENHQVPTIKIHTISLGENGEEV
- method.notes: NVS_GPCR_rAdra1A: NovaScreen (NVS) G Protein-Coupled Receptor Assay for rat Adrenergic, Alpha 1A Receptor (Adra1A) (AID 2283296)
Records with an inconclusive call do not appear. Active and inactive are the calls of the source. Rule for the calls: active = hit-call score of the fitted dose curve at least 0.9, where 1 is the maximum; inconclusive = response in the unintended direction; inactive = score below 0.9.
measured.metric: AC50

input.smiles	AC50
CCC[CH2][Sn]([Cl])([CH2]CCC)[CH2]CCC	11.3 µM (active)
O=C(N[C@H](c1ccccc1)[C@@H]1CN2CCC1CC2)c1c(Cl)ccc(C(F)(F)F)c1Cl	18.1 µM (active)

Ask | I would be grateful if you could share the reported AC50 for "CCOC(=O)[C@]1(c2ccccc2)Oc2ccccc2[C@@H]1N" .
Reply | 0.38 µM (active)

Ask | I would be grateful if you could share the reported AC50 for "[Cl-].[Cl-].[Hg+2]" .
Reply | 12.1 µM (active)

###

- method.notes: IUF_NPC2a_radial_glia_migration_72hr: Leibniz Research Institute for Environmental Medicine (IUF) 72-hour Neural Progenitor Cell Migration Assay for Radial Glia Migration (NPC2a) (AID 2284299)
Activity calls are given as the source filed them. How the source made its calls: active means hit-call score of the fitted dose curve at least 0.9, where 1 is the maximum; inactive means score below 0.9.
Choose one outcome from this list and give only that: 1 (active), -1 (inactive)

Ask | Check the results log: what was the call for "COP(=S)(OC)SCN1C(=O)c2ccccc2C1=O" ?
Reply | -1

###

- Read-out: Monokine induced gamma interferon (MIG), CXCL9 (gene 4283)
- method.notes: BSK_hDFCGF_MIG: BioMAP Diversity Plus: hDFCGF Assay for Monokine induced gamma interferon (MIG) Biomarker Activity (AID 2283063)
- condition.notes: primary human foreskin fibroblasts; actives raise or lower the signal
The source made the active and inactive calls. The calls were made as follows: active = hit-call score of the fitted dose curve at least 0.9, where 1 is the maximum; inactive = score below 0.9.
Choose one outcome from this list and give only that: active, inactive

compound	discrete.label
CC(C)(O)c1cnn2c(-c3ccc(F)c(-c4c(F)cccc4C#N)c3)cnc2n1	inactive
CCCSC(=O)N(CCC)CCC	inactive
O=C1CCCO1	inactive
CC(C)COC(=O)c1ccccc1C(=O)OCC(C)C	inactive
Clc1ccc(Cl)c(Cl)c1	inactive
Nc1ccc(N=Nc2ccccc2)cc1	inactive

Ask | Check the results log: what was the call for "O=C(Nc1ccccc1)c1ccccc1I" ?
Reply | inactive

Ask | Check the results log: what was the call for "O=C(Oc1ccc(Br)cc1)N1CCN2CCC1CC2" ?
Reply | inactive

Ask | Check the results log: what was the call for "CN(C)c1ccccc1" ?
Reply | inactive

Ask | Check the results log: what was the call for "O=[N+]([O-])C(Br)(CO)CO" ?
Reply | active

Ask | Check the results log: what was the call for "Oc1ccccc1Cl" ?
Reply | inactive

Ask | Check the results log: what was the call for "Cc1ccc(N)c(N)c1" ?
Reply | active
